Can you tell me CC50 +/− SEM for the items I'm about to list?
Test system: tonic hind limb extensor convulsions (mouse model of generalised seizure)
Measurement Description: mini-MEST (maximal electroshock seizure threshold) test in the mouse
Experimental Setup: 5 mg/kg i.p., test 15 min post dose
Description: The efficacy of novel resorcinols 2, 3, 5, 8, 10, 15, 16, 17, 18, 19, 41 45, 46, 53, 56 and 58 were tested in a novel mouse model of generalised seizure, the mini-MEST (maximal electroshock seizure threshold) test, which uses lower n numbers than typically used. […] In the MEST test the ability of a drug to alter the seizure threshold current required to induce hind limb tonic extensor convulsions is measured according to an “up and down” method of shock titration (Kimball et al., 1957). […]

Example entries begin here.
C=C(C)[C@@H]1C[C@H](O)C(C)=C[C@H]1c1c(O)cc(-c2ccc(OC)nc2)cc1O; 39.0 +/− 0.2 mA
C=C(C)[C@@H]1C[C@H](O)C(C)=C[C@H]1c1c(O)cc(CC)cc1O; 44.2 +/− 1.4 mA
C=C(C)[C@@H]1C[C@H](O)C(C)=C[C@H]1c1c(O)cc(CCC)c(F)c1O; 35.5 +/− 0.5 mA

Return reported CC50 +/− SEM values for all items listed beneath this line.
1. C=C(C)[C@@H]1C[C@H](O)C(C)=C[C@H]1c1c(O)cc(CCOC)cc1O
2. C=C(C)[C@@H]1C[C@H](O)C(C)=C[C@H]1c1c(O)cc(-c2cnn(C)c2)cc1O

1. 23.5 +/− 0.3 mA
2. 28.3 +/− 1.1 mA
